Data credit: patent US20240391862A1

# Test system: ABUTH
# EXPERIMENT: Post-emergence herbicidal effect, greenhouse pot test
# Format: in vivo, Abutilon theophrasti
# CONDITION DETAILS: 20 g/ha, visual rating about 3 weeks after treatment
ASSAY METRIC: Post-emergence effect against ABUTH (%)
Give bare numbers, in %.

Known Post-emergence effect against ABUTH results, listed for orientation:
COC(=O)CCOC(=O)C(OC)Oc1nn(-c2ccccc2F)c(-c2ccc(F)nc2)c1C1CC1 (single isomer, unassigned) [Example I-74] | 80
COC(=O)C(C)COC(=O)C(OC)Oc1nn(-c2ccccc2F)c(-c2ccc(F)nc2)c1Br (racemic) [Example I-10] | 80

Then this molecule:
Query string: Query Post-emergence effect against ABUTH for COC(=O)CCOC(=O)C(OC)Oc1nn(-c2ccccc2F)c(-c2ccc(F)nc2)c1C1CC1 (single isomer, unassigned) [Example I-75]
Result string: 80
